- System: Peritoneal macrophage
- MEASUREMENT_NOTES: Antiinflammatory activity in mouse Peritoneal macrophage cells assessed as inhibition of LPS-induced IL-6 production at 20 microg/ml incubated for 6 hrs by ELISA analysis
- Assay type: functional, cell-based
- SETTINGS: dose 20.0 µg/ml
Calls of active or inactive are those of the source. The rule behind the calls is not given here.
MEASURED_METRIC: Activity

Consider the reported Activity for these substances:
# SUBSTANCE, RESULT
measured = [
    ("H-RFFKKVRKQLGRVLRHSRITVGGRMRF-OH", "Active"),
    ("H-RRSRFGRFFKKVRKQLGRVLRHS-NH2", "Active"),
    ("H-RRSRFGRFFKKVRKQLGRVLRHSRITV-NH2", "Active"),
    ("H-SRFGRFFKKVRKQLGRVLRHSRITVGGRMRF-OH", "Active"),
]

Query Activity on Peritoneal macrophage for `H-RRSRFGRFFKKVRKQLGRVLRHSRITVGGRM-NH2`
Active

Notebook: pull reported Activity for Peritoneal macrophage, entry `H-RRSRFGRFFKKVRKQLGRVLRHSRITVGG-NH2`
Active

Entry `H-FGRFFKKVRKQLGRVLRHSRITVGGRMRF-OH` , system Peritoneal macrophage: what Activity was measured?
Active

Peritoneal macrophage / Activity / `H-RRSRFGRFFKKVRKQLGRVLR-NH2` : value?
Active

Activity of `H-RRSRFGRFFKKVRKQLGRVLRHSRI-NH2` on Peritoneal macrophage?
Active
